Below, each entry is listed with its recorded kinase still bound, per cent of control.
Test system: EGFR (human), P00533 [747-751 del / S ins]
Sequence (P00533 whole entry, looked up, stated change not applied): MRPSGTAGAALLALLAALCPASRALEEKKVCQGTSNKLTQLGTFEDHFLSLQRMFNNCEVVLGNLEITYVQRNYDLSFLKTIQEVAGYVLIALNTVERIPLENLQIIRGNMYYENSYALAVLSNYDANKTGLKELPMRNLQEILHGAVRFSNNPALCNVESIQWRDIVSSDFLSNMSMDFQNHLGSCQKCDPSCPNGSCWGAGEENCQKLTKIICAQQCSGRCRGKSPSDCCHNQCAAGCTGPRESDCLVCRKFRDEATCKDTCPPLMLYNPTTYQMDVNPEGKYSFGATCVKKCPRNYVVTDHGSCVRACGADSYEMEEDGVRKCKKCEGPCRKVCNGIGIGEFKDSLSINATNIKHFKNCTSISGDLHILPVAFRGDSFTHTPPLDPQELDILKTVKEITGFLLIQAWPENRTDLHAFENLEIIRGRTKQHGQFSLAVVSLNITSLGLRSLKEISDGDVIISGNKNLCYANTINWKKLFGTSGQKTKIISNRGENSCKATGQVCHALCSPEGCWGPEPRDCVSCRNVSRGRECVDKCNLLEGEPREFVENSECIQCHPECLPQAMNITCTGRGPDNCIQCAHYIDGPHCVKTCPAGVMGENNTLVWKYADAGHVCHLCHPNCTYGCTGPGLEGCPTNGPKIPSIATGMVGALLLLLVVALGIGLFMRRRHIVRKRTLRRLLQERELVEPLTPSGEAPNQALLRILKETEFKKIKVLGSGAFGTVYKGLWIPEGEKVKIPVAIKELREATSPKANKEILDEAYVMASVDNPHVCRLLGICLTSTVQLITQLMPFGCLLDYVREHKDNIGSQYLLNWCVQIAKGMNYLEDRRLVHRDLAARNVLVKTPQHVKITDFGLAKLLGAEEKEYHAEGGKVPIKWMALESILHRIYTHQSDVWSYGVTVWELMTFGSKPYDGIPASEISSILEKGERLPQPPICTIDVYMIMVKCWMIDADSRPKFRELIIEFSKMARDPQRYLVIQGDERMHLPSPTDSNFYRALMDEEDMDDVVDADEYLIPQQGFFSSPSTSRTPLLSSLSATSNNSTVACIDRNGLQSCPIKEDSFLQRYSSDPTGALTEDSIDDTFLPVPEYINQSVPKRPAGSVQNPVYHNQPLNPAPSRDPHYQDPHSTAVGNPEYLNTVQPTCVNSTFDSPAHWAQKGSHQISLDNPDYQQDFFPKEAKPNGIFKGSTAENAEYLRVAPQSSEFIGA
Test: KINOMEscan competition binding
Settings: compound 10.0 µM
Please reply with the bare figure in % and do not write the unit itself.

Some solved entries appear below for comparison.
# STRUCTURE_STRING, SYSTEM_NAME, kinase still bound, per cent of control (%)
rows = [
    ("CCN1CCN(Cc2ccc(NC(=O)c3ccc(C)c(Oc4ccnc5[nH]ccc45)c3)cc2C(F)(F)F)CC1", "EGFR (human), P00533 [747-751 del / S ins]", 1.1),
    ("CCN1CCN(Cc2ccc(NC(=O)c3ccc(C)c(/C=C/c4cnc(Nc5cc(N6CCNCC6)nc(C)n5)cn4)c3)cc2C(F)(F)F)CC1", "EGFR (human), P00533 [747-751 del / S ins]", 4.6),
    ("COc1cc(N2CCC(N3CCN(C)CC3)CC2)ccc1Nc1ncc(Cl)c(Nc2ccccc2S(=O)(=O)C(C)C)n1", "EGFR (human), P00533 [747-751 del / S ins]", 0.6),
]

Inquiry: Item under review: CCOc1cc(N2CCC(N3CCCCC3)CC2)ccc1Nc1nc(Nc2ccccc2S(=O)(=O)C(C)C)c2cn[nH]c2n1 . Reported kinase still bound, per cent of control?
Reply text: 19

====

Molecular target: IKBKB (human) (UniProt O14920)
Sequence (O14920 whole entry, looked up): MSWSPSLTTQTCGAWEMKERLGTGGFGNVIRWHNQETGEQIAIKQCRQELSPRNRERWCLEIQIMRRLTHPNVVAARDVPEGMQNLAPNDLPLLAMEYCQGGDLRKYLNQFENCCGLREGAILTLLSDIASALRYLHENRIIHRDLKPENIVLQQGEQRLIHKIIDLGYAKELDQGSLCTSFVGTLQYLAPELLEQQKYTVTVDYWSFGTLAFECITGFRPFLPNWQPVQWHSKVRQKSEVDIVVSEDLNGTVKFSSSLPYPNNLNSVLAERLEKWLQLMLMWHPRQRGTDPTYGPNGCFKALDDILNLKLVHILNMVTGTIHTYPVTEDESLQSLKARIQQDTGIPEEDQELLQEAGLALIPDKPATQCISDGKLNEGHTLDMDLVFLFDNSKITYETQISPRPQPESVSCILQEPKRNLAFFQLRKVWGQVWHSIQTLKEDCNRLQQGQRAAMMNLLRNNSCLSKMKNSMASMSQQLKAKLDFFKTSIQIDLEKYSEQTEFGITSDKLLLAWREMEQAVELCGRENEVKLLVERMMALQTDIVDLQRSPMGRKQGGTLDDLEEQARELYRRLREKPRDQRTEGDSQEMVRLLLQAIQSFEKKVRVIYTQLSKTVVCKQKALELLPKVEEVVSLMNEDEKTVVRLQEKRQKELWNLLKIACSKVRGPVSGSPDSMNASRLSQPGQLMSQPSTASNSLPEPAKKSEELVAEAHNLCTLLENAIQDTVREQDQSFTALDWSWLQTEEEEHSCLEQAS
Experiment: KINOMEscan competition binding
Conditions: compound 10.0 µM
TEST_READOUT: kinase still bound, per cent of control (%)
Please reply with the bare figure in % and do not write the unit itself.

Inquiry: Item under review: COc1cc(N2CCC(N3CCN(C)CC3)CC2)ccc1Nc1ncc(Cl)c(Nc2ccccc2S(=O)(=O)C(C)C)n1 . Reported kinase still bound, per cent of control?
Reply text: 40

Inquiry: Item under review: CCN1CCN(Cc2ccc(NC(=O)c3ccc(C)c(/C=C/c4cnc(Nc5cc(N6CCNCC6)nc(C)n5)cn4)c3)cc2C(F)(F)F)CC1 . Reported kinase still bound, per cent of control?
Reply text: 0.95

Inquiry: Item under review: CCN1CCN(Cc2ccc(NC(=O)c3ccc(C)c(Oc4ccnc5[nH]ccc45)c3)cc2C(F)(F)F)CC1 . Reported kinase still bound, per cent of control?
Reply text: 24

Inquiry: Item under review: CCOc1cc(N2CCC(N3CCCCC3)CC2)ccc1Nc1nc(Nc2ccccc2S(=O)(=O)C(C)C)c2cn[nH]c2n1 . Reported kinase still bound, per cent of control?
Reply text: 100

====

Target: MYLK2 (human) (UniProt Q9H1R3)
Sequence (Q9H1R3 whole entry, looked up): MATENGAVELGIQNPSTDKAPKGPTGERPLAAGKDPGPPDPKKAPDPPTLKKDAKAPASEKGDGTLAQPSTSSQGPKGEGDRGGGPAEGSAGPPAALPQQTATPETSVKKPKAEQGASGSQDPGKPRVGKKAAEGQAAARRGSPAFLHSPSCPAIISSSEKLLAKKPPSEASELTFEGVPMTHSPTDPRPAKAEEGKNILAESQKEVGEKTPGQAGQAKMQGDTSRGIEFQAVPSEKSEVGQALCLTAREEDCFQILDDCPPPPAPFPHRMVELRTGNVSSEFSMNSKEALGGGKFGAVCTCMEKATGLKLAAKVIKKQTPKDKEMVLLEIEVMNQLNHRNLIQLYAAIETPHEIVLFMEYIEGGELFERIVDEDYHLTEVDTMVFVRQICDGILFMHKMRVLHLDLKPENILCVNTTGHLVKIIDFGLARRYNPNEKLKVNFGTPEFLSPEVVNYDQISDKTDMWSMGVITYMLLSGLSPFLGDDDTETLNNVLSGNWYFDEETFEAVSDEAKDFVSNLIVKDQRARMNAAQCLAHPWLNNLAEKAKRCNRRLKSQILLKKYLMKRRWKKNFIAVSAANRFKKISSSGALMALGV
Assay: KINOMEscan competition binding
Details: compound 10.0 µM
Below, each entry is listed with its recorded kinase still bound, per cent of control.
Please reply with the bare figure in % and do not write the unit itself.

Some solved entries appear below for comparison.
# STRUCTURE_STRING, SYSTEM_NAME, TEST_READOUT, ASSAY_VALUE
rows = [
    ("CCN1CCN(Cc2ccc(NC(=O)c3ccc(C)c(/C=C/c4cnc(Nc5cc(N6CCNCC6)nc(C)n5)cn4)c3)cc2C(F)(F)F)CC1", "MYLK2 (human) (UniProt Q9H1R3)", "kinase still bound, per cent of control", 3.8),
    ("CCN1CCN(Cc2ccc(NC(=O)c3ccc(C)c(Oc4ccnc5[nH]ccc45)c3)cc2C(F)(F)F)CC1", "MYLK2 (human) (UniProt Q9H1R3)", "kinase still bound, per cent of control", 8.4),
    ("COc1cc(N2CCC(N3CCN(C)CC3)CC2)ccc1Nc1ncc(Cl)c(Nc2ccccc2S(=O)(=O)C(C)C)n1", "MYLK2 (human) (UniProt Q9H1R3)", "kinase still bound, per cent of control", 40),
]

Okay, now this compound:
Inquiry: Item under review: CCOc1cc(N2CCC(N3CCCCC3)CC2)ccc1Nc1nc(Nc2ccccc2S(=O)(=O)C(C)C)c2cn[nH]c2n1 . Reported kinase still bound, per cent of control?
Reply text: 100
